Tested system: Amine oxidase [flavin-containing] B (Homo sapiens)
Sequence (P27338 whole entry): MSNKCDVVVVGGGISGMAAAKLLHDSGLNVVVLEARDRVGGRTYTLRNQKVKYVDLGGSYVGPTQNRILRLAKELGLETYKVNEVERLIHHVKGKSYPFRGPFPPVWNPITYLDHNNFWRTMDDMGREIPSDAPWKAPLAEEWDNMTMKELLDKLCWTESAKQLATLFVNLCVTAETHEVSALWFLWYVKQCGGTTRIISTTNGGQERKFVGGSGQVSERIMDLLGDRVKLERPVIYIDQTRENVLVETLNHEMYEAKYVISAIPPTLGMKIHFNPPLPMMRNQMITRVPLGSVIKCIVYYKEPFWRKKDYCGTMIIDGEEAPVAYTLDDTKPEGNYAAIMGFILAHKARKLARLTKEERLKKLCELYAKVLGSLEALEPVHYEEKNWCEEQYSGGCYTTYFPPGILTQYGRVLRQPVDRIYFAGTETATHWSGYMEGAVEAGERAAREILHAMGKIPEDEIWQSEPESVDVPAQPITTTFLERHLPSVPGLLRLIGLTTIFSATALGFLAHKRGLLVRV
Protocol description: Inhibition of human recombinant MAOB by amplex red assay
pIC50: −log10 of the molar value.

{"Compound": "CC(=O)c1ccc(CC2SC(=N)NC2=O)cc1 (configuration not stated)", "pIC50": 3.51}
{"Compound": "O=C(/C=C1/SC(=O)NC1=O)Nc1ccccc1", "pIC50": 4.66}
{"Compound": "COc1cc(/C=C2/SC(=S)NC2=O)c(OC)cc1O", "pIC50": 4.50}
{"Compound": "N=C1NC(=O)C(Cc2ccccc2)S1 (configuration not stated)", "pIC50": 4.62}
{"Compound": "O=C1NC(=O)/C(=C\\c2cccc(Br)c2)S1", "pIC50": 5.22}
{"Compound": "O=C1NC(=O)C(Cc2ccc(O)cc2)S1 (configuration not stated) [GLITAZONE]", "pIC50": 3.65}
{"Compound": "CN1C(=O)/C(=C\\c2ccc(Cl)cc2)SC1=S", "pIC50": 4.44}

This collection of values is drawn from ChEMBL document CHEMBL1811826.
